target: Neuropilin-1 domains b1b2 (Nrp1-b1b2); assay: ITC
Catalogue of Kd readings, one per entry.

Query block: Name the recorded Kd for WDQKKPRNRR [Sema3F C-terminal peptide, wild type (S3F-RR)] .
Result block: 33 µM

Query block: May I ask what Kd has been recorded for WDQKKPRNPR [Sema3F C-terminal peptide, C-1 proline variant (S3F-PR)] ?
Result block: 10 µM
